Attribution: patent US20200317768A1

Reported values of koff for individual entries
Biological target: T1, Human latent myostatin (human, UniProt O14793 25-266; O14793 267-375)
T1 construct: Biotinylated in the ELISAs; also called human myostatin latent form
T1 sequence 1: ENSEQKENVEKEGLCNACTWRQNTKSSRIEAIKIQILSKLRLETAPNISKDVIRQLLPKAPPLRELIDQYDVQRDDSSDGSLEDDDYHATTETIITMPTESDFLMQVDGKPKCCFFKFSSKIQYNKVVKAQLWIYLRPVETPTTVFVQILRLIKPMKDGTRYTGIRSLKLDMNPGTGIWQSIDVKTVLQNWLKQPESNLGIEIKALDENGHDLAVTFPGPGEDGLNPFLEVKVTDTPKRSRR
T1 sequence 2: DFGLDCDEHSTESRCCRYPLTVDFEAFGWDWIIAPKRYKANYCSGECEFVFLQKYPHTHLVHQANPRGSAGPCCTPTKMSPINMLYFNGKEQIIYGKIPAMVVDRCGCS
Test: SPR (BIACORE T200), 37 C, pH5.8, avidity condition (capture 185 RU), 1:1 fit; pH 5.8
Provide the reading as a plain figure in s⁻¹.

MS_M103205H000-SG1/M103202LO00-SK1 (antibody, human IgG1, kappa, V domains shown, Humanized MST1032, not pH-dependent; also called MS1032LO00-SG1; Ab001) VH: QVTLKESGPVLVKPTETLTLTCTVSGIDLSSYDISWVRQAPGKGLEWVGIISYAGSTYYASWAKGRLTISKDTSKNQVVLTMTNMDPVDTATYYCARGVPAYSTGGDLWGQGTLVTVSS VL: DIVMTQSPATLSLSPGERATLSCQSSQSVYDNNWLSWFQQKPGQPPKLLIYWASTLASGVPSRFSGSGSGTDFTLTISSLQPEDAATYYCAGGYGGGLYAFGQGTKVEIKR: 0.000128
MS_M103205H781-SG1/M103202L719-SK1 (antibody, human IgG1, kappa, V domains shown, also called MS1032LO02-SG1; MSLO-02) VH: QVTLKESGPVLVKPTETLTLTCTVSGIDLSHTDISWVRQAPGKGLEWVGIISYAGSTYYMSWAKGRLTISKDTSKNQVVLTMTNMDPVDTATYYCARGVPAYSHGGDLWGQGTLVTVSS VL: DIVMTQSPATLSLSPGERATLSCQSSQSVYHNNWLSWFQQKPGQPPKLLIYWASTLAFGVPSRFSGSGSGTDFTLTISSLQPEDAATYYCAGGYGGGLYAFGQGTKVEIKR: 0.0414
MS_M103205H781-SG1/M103202L813-SK1 (antibody, human IgG1, kappa, V domains shown, also called MS1032LO03-SG1; MSLO-03) VH: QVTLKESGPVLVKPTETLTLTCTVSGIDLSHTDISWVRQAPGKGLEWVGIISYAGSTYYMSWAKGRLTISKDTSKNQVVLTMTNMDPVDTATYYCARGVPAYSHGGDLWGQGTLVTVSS VL: DIVMTQSPATLSLSPGERATLSCQTSQSVYHDNWLSWFQQKPGQPPKLLIYWASTLASGVPSRFSGSGSGTDFTLTISSLQPEDAATYYCAGGYGGGRYAFGQGTKVEIKR: 0.00524

Continue with the binder presented below.
Reported koff for MS_M103205H714-SG1/M103202L861-SK1 (antibody, human IgG1, kappa, V domains shown, also called MS1032LO01-SG1; MSLO-01) VH: QVTLKESGPVLVKPTETLTLTCTVSGIDLSHTDISWVRQAPGKGLEWVGIISYAGSTYYASWAKGRLTISKDTSKNQVVLTMTNMDPVDTATYYCARGVPAYSHGGDLWGQGTLVTVSS VL: DIVMTQSPATLSLSPGERATLSCTSSQSVYHNNWLSWFQQKPGQPPKLLIYWASTLAYGVPSRFSGSGSGTDFTLTISSLQPEDAATYYCAGGYGGGRYAFGQGTKVEIKR : what is it?
0.0242
